target: Transient receptor potential cation channel subfamily V member 1 (Rattus norvegicus, UniProt O35433)
Sequence (O35433 whole entry): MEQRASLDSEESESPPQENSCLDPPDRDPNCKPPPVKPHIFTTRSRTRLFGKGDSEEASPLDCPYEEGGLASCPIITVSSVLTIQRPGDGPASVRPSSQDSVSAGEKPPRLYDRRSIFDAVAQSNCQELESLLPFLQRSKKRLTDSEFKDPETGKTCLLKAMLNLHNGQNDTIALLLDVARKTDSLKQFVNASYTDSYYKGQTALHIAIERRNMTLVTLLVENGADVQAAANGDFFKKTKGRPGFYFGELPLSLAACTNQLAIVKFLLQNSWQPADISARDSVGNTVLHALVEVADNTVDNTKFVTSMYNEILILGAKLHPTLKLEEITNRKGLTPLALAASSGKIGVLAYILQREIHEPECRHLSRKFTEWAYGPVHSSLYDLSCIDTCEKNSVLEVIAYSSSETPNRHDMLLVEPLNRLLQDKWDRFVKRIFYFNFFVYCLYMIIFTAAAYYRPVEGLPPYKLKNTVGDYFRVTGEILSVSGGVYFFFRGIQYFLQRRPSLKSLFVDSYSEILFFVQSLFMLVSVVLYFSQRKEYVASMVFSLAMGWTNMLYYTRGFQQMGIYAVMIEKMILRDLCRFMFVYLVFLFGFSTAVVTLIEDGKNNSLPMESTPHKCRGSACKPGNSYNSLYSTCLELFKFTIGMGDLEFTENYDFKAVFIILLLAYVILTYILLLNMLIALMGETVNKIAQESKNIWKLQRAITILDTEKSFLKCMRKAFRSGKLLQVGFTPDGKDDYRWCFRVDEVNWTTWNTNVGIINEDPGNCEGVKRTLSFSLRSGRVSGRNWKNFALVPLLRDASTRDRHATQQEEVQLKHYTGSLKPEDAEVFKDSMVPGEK
pKi: −log10 of the molar value.
Can you tell me pKi for the items I'm about to list?

Task item: Determine from records and report pKi for CCCCC/C=C\C/C=C\C/C=C\C/C=C\CCCC(=O)OCc1ccoc1
Reply: > 5.30

Task item: Determine from records and report pKi for CCCCC/C=C\C/C=C\C/C=C\C/C=C\CCCC(=O)NCc1cccs1
Reply: < 5.30

Task item: Determine from records and report pKi for CCCCC/C=C\C/C=C\C/C=C\C/C=C\CCCC(=O)OCc1cccs1
Reply: < 5.30

====

biological target: UniProt P34972; test: Binding affinity to human CB2 cannabinoid receptor using [3H]CP-55940 in HEK293 EBNA transfected cells
Sequence (P34972 whole entry): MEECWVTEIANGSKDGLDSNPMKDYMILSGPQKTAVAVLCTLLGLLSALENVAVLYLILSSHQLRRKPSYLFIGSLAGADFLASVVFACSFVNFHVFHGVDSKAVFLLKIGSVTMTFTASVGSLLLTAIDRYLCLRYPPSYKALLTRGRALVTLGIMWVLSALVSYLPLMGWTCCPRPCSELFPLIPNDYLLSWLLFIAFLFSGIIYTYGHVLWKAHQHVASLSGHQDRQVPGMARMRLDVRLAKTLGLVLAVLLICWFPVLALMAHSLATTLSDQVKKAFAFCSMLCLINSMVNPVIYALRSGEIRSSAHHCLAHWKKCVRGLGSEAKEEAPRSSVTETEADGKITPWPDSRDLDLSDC
pKi: −log10 of the molar value.
Can you tell me pKi for the items I'm about to list?

Task item: Determine from records and report pKi for CCCCC/C=C\C/C=C\C/C=C\C/C=C\CCCC(=O)NCc1ccoc1
Reply: 7.17

Task item: Determine from records and report pKi for CCCCC/C=C\C/C=C\C/C=C\C/C=C\CCCC(=O)OCc1ccoc1
Reply: < 6.00

Task item: Determine from records and report pKi for CCCCC/C=C\C/C=C\C/C=C\C/C=C\CCCC(=O)OCc1cccs1
Reply: < 6.00

Task item: Determine from records and report pKi for CCCCC/C=C\C/C=C\C/C=C\C/C=C\CCCC(=O)NCC1CCCO1 (configuration not stated)
Reply: < 6.00

Task item: Determine from records and report pKi for CCCCC/C=C\C/C=C\C/C=C\C/C=C\CCCC(=O)NCc1cccn1C
Reply: 7.15

Task item: Determine from records and report pKi for CCCCC/C=C\C/C=C\C/C=C\C/C=C\CCCC(=O)NCc1ccco1
Reply: < 6.00

Task item: Determine from records and report pKi for CCCCC/C=C\C/C=C\C/C=C\C/C=C\CCCC(=O)NCc1cccs1
Reply: < 6.00

Task item: Determine from records and report pKi for CCCCC/C=C\C/C=C\C/C=C\C/C=C\CCCC(=O)OCc1ccsc1
Reply: < 6.00

Task item: Determine from records and report pKi for CCCCC/C=C\C/C=C\C/C=C\C/C=C\CCCC(=O)Nc1ccc(O)cc1
Reply: < 6.00

Task item: Determine from records and report pKi for CCCCC/C=C\C/C=C\C/C=C\C/C=C\CCCC(=O)OCC1CCCO1 (configuration not stated)
Reply: < 6.00

Task item: Determine from records and report pKi for CCCCC/C=C\C/C=C\C/C=C\C/C=C\CCCC(=O)OCc1ccco1
Reply: < 6.00

Task item: Determine from records and report pKi for CCCCC/C=C\C/C=C\C/C=C\C/C=C\CCCC(=O)OCC1CCOC1 (configuration not stated)
Reply: < 6.00

====

biological target: Transient receptor potential cation channel subfamily V member 1 (Rattus norvegicus, UniProt O35433)
Measure Name: Ki

Task item: Determine from records and report Ki for CCCCC/C=C\C/C=C\C/C=C\C/C=C\CCCC(=O)OCC1CCOC1 (stereo not given)
Reply: > 5 µM

Task item: Determine from records and report Ki for CCCCC/C=C\C/C=C\C/C=C\C/C=C\CCCC(=O)Nc1ccc(O)cc1
Reply: > 5 µM

Task item: Determine from records and report Ki for CCCCC/C=C\C/C=C\C/C=C\C/C=C\CCCC(=O)NCc1cccn1C
Reply: > 5 µM

Task item: Determine from records and report Ki for CCCCC/C=C\C/C=C\C/C=C\C/C=C\CCCC(=O)NCCO [ANANDAMIDE]
Reply: 0.169 µM

Task item: Determine from records and report Ki for CCCCC/C=C\C/C=C\C/C=C\C/C=C\CCCC(=O)OCc1ccco1
Reply: > 5 µM

Task item: Determine from records and report Ki for CCCCC/C=C\C/C=C\C/C=C\C/C=C\CCCC(=O)NCc1ccoc1
Reply: > 5 µM

Task item: Determine from records and report Ki for CCCCC/C=C\C/C=C\C/C=C\C/C=C\CCCC(=O)OCc1ccsc1
Reply: > 5 µM

Task item: Determine from records and report Ki for CCCCC/C=C\C/C=C\C/C=C\C/C=C\CCCC(=O)NCC1CCCO1 (stereo not given)
Reply: > 5 µM

Task item: Determine from records and report Ki for CCCCC/C=C\C/C=C\C/C=C\C/C=C\CCCC(=O)NCc1ccco1
Reply: < 5 µM

Task item: Determine from records and report Ki for CCCCC/C=C\C/C=C\C/C=C\C/C=C\CCCC(=O)OCC1CCCO1 (stereo not given)
Reply: > 5 µM
